assay: Potency index, ratio of silibinin IC50 to compound IC50 for antiproliferative activity against human PC3 cells; assay type: functional, PC-3
Measured Metric: Ratio IC50
Answers are plain numbers.

In the examples that follow, each entry is paired with its recorded Ratio IC50.
1) COc1cc(O)c2c(=O)c(O)c(-c3ccc4c(c3)OC(c3ccc(O)c(OC)c3)C(CO)O4)oc2c1 (stereo not drawn)    30
2) COc1cc(C2Oc3cc(-c4oc5cc(OCc6ccccc6)cc(O)c5c(=O)c4O)ccc3OC2CO)ccc1O (stereo not drawn)    9
3) CCCOc1cc(O)c2c(=O)c(O)c(-c3ccc4c(c3)OC(c3ccc(O)c(OC)c3)C(CO)O4)oc2c1 (stereo not drawn)    15
4) COc1cc(C2Oc3cc([C@H]4Oc5cc(OCc6ccccc6)cc(O)c5C(=O)[C@@H]4O)ccc3OC2CO)ccc1O (stereo partly drawn)    14
5) CCCCCCOc1cc(O)c2c(=O)c(O)c(-c3ccc4c(c3)OC(c3ccc(O)c(OC)c3)C(CO)O4)oc2c1 (stereo not drawn)    10

// each listed compound needs a value for Ratio IC50
1. CCOc1cc(O)c2c(=O)c(O)c(-c3ccc4c(c3)OC(c3ccc(O)c(OC)c3)C(CO)O4)oc2c1 (stereo not drawn)
2. CCCCCOc1cc(O)c2c(=O)c(OCCCCC)c(-c3ccc4c(c3)OC(c3ccc(O)c(OC)c3)C(CO)O4)oc2c1 (stereo not drawn)
3. CCCCOc1cc(O)c2c(=O)c(OCCCC)c(-c3ccc4c(c3)OC(c3ccc(O)c(OC)c3)C(CO)O4)oc2c1 (stereo not drawn)

// result
1. 22
2. 1
3. 2

###

system: LNCaP; test: Antiproliferative activity against human LNCAP cells assessed as reduction in cell viability after 3 days by WST-1 cell proliferation assay; format: functional, cell-based; details: 72 h
Mark each entry Met if its IC50 sits below 10 µM, and Not met for all others.

The following compounds have reported results that may help.
1) CCCOc1cc(O)c2c(=O)c(OCCC)c(-c3ccc4c(c3)OC(c3ccc(O)c(OC)c3)C(CO)O4)oc2c1 (stereo not drawn)    Not met
2) CCCCCOc1cc(O)c2c(=O)c(OCCCCC)c(-c3ccc4c(c3)OC(c3ccc(O)c(OC)c3)C(CO)O4)oc2c1 (stereo not drawn)    Not met
3) COc1cc(C2Oc3cc(-c4oc5cc(OCc6ccccc6)cc(O)c5c(=O)c4O)ccc3OC2CO)ccc1O (stereo not drawn)    Met
4) CCCCCCCOc1cc(O)c2c(c1)O[C@H](c1ccc3c(c1)OC(c1ccc(O)c(OC)c1)C(CO)O3)[C@@H](O)C2=O (stereo partly drawn)    Met

// query Say whether its IC50 is strictly beneath 10 µM. Entry: CCCCCCCOc1cc(O)c2c(=O)c(O)c(-c3ccc4c(c3)OC(c3ccc(O)c(OC)c3)C(CO)O4)oc2c1 (stereo not drawn)
// result Met

// query # strict comparison: is reported IC50 < 10 µM? input = CCOc1cc(O)c2c(=O)c(O)c(-c3ccc4c(c3)OC(c3ccc(O)c(OC)c3)C(CO)O4)oc2c1 (stereo not drawn)
// result Met

// query Confirm or reject: IC50 of CCCCOc1cc(O)c2c(=O)c(OCCCC)c(-c3ccc4c(c3)OC(c3ccc(O)c(OC)c3)C(CO)O4)oc2c1 (stereo not drawn) lies strictly below 10 µM
// result Not met

// query I'd appreciate it if you could check whether CCCOc1cc(O)c2c(c1)O[C@H](c1ccc3c(c1)OC(c1ccc(O)c(OC)c1)C(CO)O3)[C@@H](O)C2=O (stereo partly drawn) has IC50 smaller than 10 µM.
// result Met

###

tested on: LNCaP; experiment: Antiproliferative activity against human LNCAP cells assessed as reduction in cell viability after 3 days by WST-1 cell proliferation assay; assay type: functional, cell-based; settings: 72 h
Measured Metric: IC50 (µM)
Give bare numbers, in µM.

1) CCOc1cc(O)c2c(=O)c(OCC)c(-c3ccc4c(c3)OC(c3ccc(O)c(OC)c3)C(CO)O4)oc2c1 (stereo not drawn)    5.57
2) COc1cc(O)c2c(=O)c(O)c(-c3ccc4c(c3)OC(c3ccc(O)c(OC)c3)C(CO)O4)oc2c1 (stereo not drawn)    2.76
3) CCCCCCOc1cc(O)c2c(c1)O[C@H](c1ccc3c(c1)OC(c1ccc(O)c(OC)c1)C(CO)O3)[C@@H](O)C2=O (stereo partly drawn)    1.65

Provide IC50 for all items below, preserving their order.
1. COc1cc(C2Oc3cc([C@H]4Oc5cc(O)cc(O)c5C(=O)[C@@H]4O)ccc3OC2CO)ccc1O (stereo partly drawn)
2. CCCCCOc1cc(O)c2c(c1)O[C@H](c1ccc3c(c1)OC(c1ccc(O)c(OC)c1)C(CO)O3)[C@@H](O)C2=O (stereo partly drawn)
3. CCCCOc1cc(O)c2c(=O)c(O)c(-c3ccc4c(c3)OC(c3ccc(O)c(OC)c3)C(CO)O4)oc2c1 (stereo not drawn)

// result
1. 43
2. 1.78
3. 3.19

###

Field: Ratio IC50. Provide a value for each of the compounds that follow.
test: Potency index, ratio of silibinin IC50 to compound IC50 for antiproliferative activity against human PC3 cells; type: functional, PC-3
Give bare numbers.

The examples below pair each entry with its known result.
1. COc1cc(O)c2c(c1)O[C@H](c1ccc3c(c1)OC(c1ccc(O)c(OC)c1)C(CO)O3)[C@@H](O)C2=O (stereo not given in full)    6
2. COc1cc(O)c2c(=O)c(OC)c(-c3ccc4c(c3)OC(c3ccc(O)c(OC)c3)C(CO)O4)oc2c1 (stereo not given)    5

Moving on to another compound below.
// query Value lookup for Ratio IC50; key = CCCOc1cc(O)c2c(=O)c(OCCC)c(-c3ccc4c(c3)OC(c3ccc(O)c(OC)c3)C(CO)O4)oc2c1 (stereo not given)
// result 5

###

experiment: Potency index, ratio of silibinin IC50 to compound IC50 for antiproliferative activity against human DU145 cells; format: functional, DU-145
For each of the compounds below, state its Ratio IC50.
Numbers only.

Example results:
1) CCOc1cc(O)c2c(=O)c(OCC)c(-c3ccc4c(c3)OC(c3ccc(O)c(OC)c3)C(CO)O4)oc2c1 (stereo not drawn)    9
2) CCCOc1cc(O)c2c(=O)c(O)c(-c3ccc4c(c3)OC(c3ccc(O)c(OC)c3)C(CO)O4)oc2c1 (stereo not drawn)    17
3) CCCOc1cc(O)c2c(=O)c(OCCC)c(-c3ccc4c(c3)OC(c3ccc(O)c(OC)c3)C(CO)O4)oc2c1 (stereo not drawn)    5

Batch request: Ratio IC50 for each of the following compounds.
1. CCCCOc1cc(O)c2c(=O)c(OCCCC)c(-c3ccc4c(c3)OC(c3ccc(O)c(OC)c3)C(CO)O4)oc2c1 (stereo not drawn)
2. COc1cc(O)c2c(=O)c(OC)c(-c3ccc4c(c3)OC(c3ccc(O)c(OC)c3)C(CO)O4)oc2c1 (stereo not drawn)
3. CCCCOc1cc(O)c2c(c1)O[C@H](c1ccc3c(c1)OC(c1ccc(O)c(OC)c1)C(CO)O3)[C@@H](O)C2=O (stereo partly drawn)
4. COc1cc(C2Oc3cc([C@H]4Oc5cc(OCc6ccccc6)cc(O)c5C(=O)[C@@H]4O)ccc3OC2CO)ccc1O (stereo partly drawn)

// result
[3, 4, 8, 11]

// query Would you kindly share the measured Ratio IC50 for COc1cc(C2Oc3cc(-c4oc5cc(OCc6ccccc6)cc(O)c5c(=O)c4O)ccc3OC2CO)ccc1O (stereo not drawn) ?
// result 10

###

assay: Potency index, ratio of silibinin IC50 to compound IC50 for antiproliferative activity against human DU145 cells; type: functional, DU-145
Assign Ratio IC50 to each entry below.
Give bare numbers.

1. CCCCCCOc1cc(O)c2c(=O)c(O)c(-c3ccc4c(c3)OC(c3ccc(O)c(OC)c3)C(CO)O4)oc2c1 (stereo unspecified)    11

Please report Ratio IC50 for every entry that follows.
1. CCCCCCCOc1cc(O)c2c(c1)O[C@H](c1ccc3c(c1)OC(c1ccc(O)c(OC)c1)C(CO)O3)[C@@H](O)C2=O (stereo partly specified)
2. CCOc1cc(O)c2c(c1)O[C@H](c1ccc3c(c1)OC(c1ccc(O)c(OC)c1)C(CO)O3)[C@@H](O)C2=O (stereo partly specified)

// result
1. 5
2. 3

Would you be so kind as to report Ratio IC50 for each listed record?
1. CCCOc1cc(O)c2c(c1)O[C@H](c1ccc3c(c1)OC(c1ccc(O)c(OC)c1)C(CO)O3)[C@@H](O)C2=O (stereo partly specified)
2. CCCCCCCOc1cc(O)c2c(=O)c(O)c(-c3ccc4c(c3)OC(c3ccc(O)c(OC)c3)C(CO)O4)oc2c1 (stereo unspecified)
3. CCCCCOc1cc(O)c2c(=O)c(O)c(-c3ccc4c(c3)OC(c3ccc(O)c(OC)c3)C(CO)O4)oc2c1 (stereo unspecified)

// result
1: 3; 2: 12; 3: 14
